system: MCF-7; assay: In vitro cytotoxicity, MTT assay, MCF-7; format: cell-based; details: Homo sapiens, MCF7; MCF-7 cells, MTT, 72 h; average of two separate determinations; read-out: IC50 (µM) MCF-7
Recorded Metric: IC50 (µM)
Entry rule: numbers only, all in µM.

O=C(Nc1cnc2ccc(Br)cc2c1Nc1ccc(F)c(Cl)c1)NS(=O)(=O)c1ccc(Cl)cc1 [22b]	6.84
O=C(Nc1cnc2ccc(Br)cc2c1Nc1ccc(Br)cc1)NS(=O)(=O)c1ccc(F)cc1 [21a]	37.6

[in] Checklist item: IC50 tested on MCF-7, entry COc1ccc(Nc2c(NC(=O)NS(=O)(=O)c3ccc(C(C)(C)C)cc3)c(C)nc3ccc(OC)cc23)cc1 [23b] , value?
[out] 6.55

[in] Checklist item: IC50 tested on MCF-7, entry O=C(Nc1cnc2ccc(Br)cc2c1Nc1ccc(Br)cc1)NS(=O)(=O)c1ccc(Cl)cc1 [21b] , value?
[out] 13.8

[in] Checklist item: IC50 tested on MCF-7, entry CC(C)(C)c1ccc(S(=O)(=O)NC(=O)Nc2cnc3ccc(Br)cc3c2Nc2ccc(C(C)(C)C#N)cc2)cc1 [19d] , value?
[out] 9.95

###

system: PC-3; experiment: In vitro cytotoxicity, MTT assay, PC-3; type: cell-based; conditions: Homo sapiens, PC-3 cells, 72 h, average of two separate determinations
IC50 reference
Entry rule: numbers only, all in µM.

Reference set, count: 2
O=C(Nc1cnc2ccc(Br)cc2c1Nc1ccc(F)c(Cl)c1)NS(=O)(=O)c1ccc(Cl)cc1 [22b]	17.7
O=C(Nc1cnc2ccc(Br)cc2c1Nc1ccc(F)c(Cl)c1)NS(=O)(=O)c1ccc(F)cc1 [22a]	52.5

We now examine a further compound.
[in] Checklist item: IC50 tested on PC-3, entry Cc1ccc(S(=O)(=O)NC(=O)Nc2cnc3ccc(Br)cc3c2Nc2ccc(C(C)(C)C#N)cc2)cc1 [19c] , value?
[out] 40.6

###

melting point reference

[in] Give its melting point value. Item: COc1ccc(Nc2c(NC(=O)NS(=O)(=O)c3ccc(C)cc3)cnc3ccc(Br)cc23)cc1 [20c]
[out] 279.2 to 280.6 °C

[in] Give its melting point value. Item: CC(C)(C#N)c1ccc(Nc2c(NC(=O)NS(=O)(=O)c3ccc(Cl)cc3)cnc3ccc(Br)cc23)cc1 [19b]
[out] 279.2 to 280.1 °C

[in] Give its melting point value. Item: COc1ccc(Nc2c(NC(=O)NS(=O)(=O)c3ccc(Cl)cc3)c(C)nc3ccc(OC)cc23)cc1 [23a]
[out] 290.8 to 291.2 °C

[in] Give its melting point value. Item: CC(C)(C)c1ccc(S(=O)(=O)NC(=O)Nc2cnc3ccc(Br)cc3c2Nc2ccc(C(C)(C)C#N)cc2)cc1 [19d]
[out] 287.2 to 288.4 °C

###

tested on: MCF-7; assay: In vitro cytotoxicity, MTT assay, MCF-7; assay type: cell-based; conditions: Homo sapiens, MCF7; MCF-7 cells, MTT, 72 h; average of two separate determinations; read-out: IC50 (µM) MCF-7
Grouping key: IC50. Bins: one = under 8 µM, two = from 8 µM up to 20 µM, three = 20 µM and over

Worked examples follow.
COc1ccc(Nc2c(NC(=O)NS(=O)(=O)c3ccc(C(C)(C)C)cc3)cnc3ccc(Br)cc23)cc1 [20d]	two
COc1ccc(Nc2c(NC(=O)NS(=O)(=O)c3ccc(Cl)cc3)c(C)nc3ccc(OC)cc23)cc1 [23a]	one
Cc1ccc(S(=O)(=O)NC(=O)Nc2cnc3ccc(Br)cc3c2Nc2ccc(C(C)(C)C#N)cc2)cc1 [19c]	one
COc1ccc(Nc2c(NC(=O)NS(=O)(=O)c3ccc(F)cc3)cnc3ccc(Br)cc23)cc1 [20a]	one
O=C(Nc1cnc2ccc(Br)cc2c1Nc1ccc(F)c(Cl)c1)NS(=O)(=O)c1ccc(F)cc1 [22a]	three
CC(C)(C)c1ccc(S(=O)(=O)NC(=O)Nc2cnc3ccc(Br)cc3c2Nc2ccc(F)c(Cl)c2)cc1 [22d]	three
Cc1ccc(S(=O)(=O)NC(=O)Nc2cnc3ccc(Br)cc3c2Nc2ccc(F)c(Cl)c2)cc1 [22c]	two
Cn1c(=O)n(-c2ccc(C(C)(C)C#N)cc2)c2c3cc(-c4cnc5ccccc5c4)ccc3ncc21 [NVP-BEZ235, reference compound]	one
COc1ccc2nc(C)c(NC(=O)NS(=O)(=O)c3ccc(F)cc3)c(Nc3ccc(Br)cc3)c2c1 [23c]	three
Cc1ccc(S(=O)(=O)NC(=O)Nc2cnc3ccc(Br)cc3c2Nc2ccc(Br)cc2)cc1 [21c]	two

[in] Input CC(C)(C#N)c1ccc(Nc2c(NC(=O)NS(=O)(=O)c3ccc(Cl)cc3)cnc3ccc(Br)cc23)cc1 [19b] ; output its category
[out] two

[in] Input CC(C)(C)c1ccc(S(=O)(=O)NC(=O)Nc2cnc3ccc(Br)cc3c2Nc2ccc(Br)cc2)cc1 [21d] ; output its category
[out] three

[in] Input COc1ccc(Nc2c(NC(=O)NS(=O)(=O)c3ccc(Cl)cc3)cnc3ccc(Br)cc23)cc1 [20b] ; output its category
[out] two

[in] Input COc1ccc2nc(C)c(NC(=O)NS(=O)(=O)c3ccc(F)cc3)c(Nc3ccc(F)c(Cl)c3)c2c1 [23d] ; output its category
[out] three

[in] Input COc1ccc(Nc2c(NC(=O)NS(=O)(=O)c3ccc(C)cc3)cnc3ccc(Br)cc23)cc1 [20c] ; output its category
[out] one
